Test system: STAT5 transcription (pSPI-GLE1-luc) in HEK-GHR cells
Assay: HEK-GHR STAT5 transcription assay (luciferase reporter, rhGH stimulated)
Assay type: cell-based, human
Conditions: Homo sapiens, compound 45 minutes before 50 nM rhGH, six hours, read-out: Activity (IC50, reduction of luciferase activity)
observable: IC50

Batch: IC50 for all items listed.
1. CC1(C)CC(=O)C2=C(C1)OC1=C(C(=O)c3ccccc3C1=O)C2c1ccc2c(c1)OCO2 (stereo not shown) [Compound 16]
2. N#Cc1ccc(C2C3=C(CCCC3=O)OC3=C2C(=O)c2ccccc2C3=O)cc1 (stereo not shown) [Compound 4]
3. O=C1CCCC2=C1C(c1ccccn1)C1=C(O2)C(=O)c2ccccc2C1=O (stereo not shown) [Compound 11]
4. CC1(C)CC(=O)C2=C(C1)OC1=C(C(=O)c3ccccc3C1=O)C2c1cccs1 (stereo not shown) [Compound 7]
5. O=C1CCCC2=C1C(c1ccc(Cl)cc1)C1=C(N2)C(=O)c2ccccc2C1=O (stereo not shown) [Compound 1]

1. < 5 µM
2. < 1 µM
3. < 1 µM
4. < 1 µM
5. < 5 µM

Hi! Can you tell me IC50 for each of these compounds?
1. CC1(C)CC(=O)C2=C(C1)OC1=C(C(=O)c3ccccc3C1=O)C2c1ccc(C#N)cc1 (stereo not shown) [Compound 3]
2. CC1(C)CC(=O)C2=C(C1)OC1=C(C(=O)c3ccccc3C1=O)C2c1ccco1 (stereo not shown) [Compound 20]
3. N#Cc1ccc(C2C3=C(CCCC3=O)NC3=C2C(=O)c2ccccc2C3=O)cc1 (stereo not shown) [Compound 2]
4. O=C1CCCC2=C1C(c1cccs1)C1=C(N2)C(=O)c2ccccc2C1=O (stereo not shown) [Compound 6]
5. O=C1CCCC2=C1C(c1ccc(Br)cc1)C1=C(N2)C(=O)c2ccccc2C1=O (stereo not shown) [Compound 26]

["< 1 µM", "< 1 µM", "< 1 µM", "< 5 µM", "< 5 µM"]
